tgt: Androgen receptor (Homo sapiens) (UniProt P10275)
Sequence (P10275 whole entry): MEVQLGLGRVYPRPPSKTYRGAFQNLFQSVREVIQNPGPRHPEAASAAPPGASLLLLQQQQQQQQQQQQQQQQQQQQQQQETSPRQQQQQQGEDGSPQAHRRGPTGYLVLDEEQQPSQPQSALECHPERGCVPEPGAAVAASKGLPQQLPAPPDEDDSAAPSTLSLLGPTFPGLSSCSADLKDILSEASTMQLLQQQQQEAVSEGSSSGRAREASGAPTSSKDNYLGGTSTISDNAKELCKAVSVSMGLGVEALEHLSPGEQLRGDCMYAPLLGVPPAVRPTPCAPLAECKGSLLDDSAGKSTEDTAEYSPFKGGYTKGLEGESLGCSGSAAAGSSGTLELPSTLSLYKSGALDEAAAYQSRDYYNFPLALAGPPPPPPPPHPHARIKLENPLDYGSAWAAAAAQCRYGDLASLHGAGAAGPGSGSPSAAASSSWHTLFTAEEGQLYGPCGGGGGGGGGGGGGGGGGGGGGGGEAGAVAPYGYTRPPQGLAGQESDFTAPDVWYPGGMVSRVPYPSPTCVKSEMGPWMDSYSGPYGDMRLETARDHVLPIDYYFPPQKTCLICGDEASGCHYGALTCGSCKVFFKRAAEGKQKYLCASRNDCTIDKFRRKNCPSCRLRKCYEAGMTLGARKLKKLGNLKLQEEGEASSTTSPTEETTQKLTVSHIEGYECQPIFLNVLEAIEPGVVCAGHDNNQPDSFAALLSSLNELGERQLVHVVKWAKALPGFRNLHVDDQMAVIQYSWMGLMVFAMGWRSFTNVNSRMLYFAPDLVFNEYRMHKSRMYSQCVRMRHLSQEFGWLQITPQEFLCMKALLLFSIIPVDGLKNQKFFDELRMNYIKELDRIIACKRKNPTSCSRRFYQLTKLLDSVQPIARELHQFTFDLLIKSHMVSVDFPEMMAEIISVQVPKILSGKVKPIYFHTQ
cond: at 10 µM
Description: Antagonist activity at androgen receptor (unknown origin) expressed in African green monkey COS7 cells assessed as inhibition of R1881-induced protein activation at 10 uM after 24 hrs by luciferase reporter gene assay relative to control
Calls of active or inactive are those of the source. No cut-off for these calls is given here.
measurement.name: inhibition

Some solved entries appear below for comparison.
CC(C)(C)C(=O)Nc1ccc2c(c1)CN1C(=S)N(c3ccc(C#N)c(C(F)(F)F)c3)C(=O)C1C2 (centres undefined) = inactive
N#Cc1ccc(N2C(=O)C3Cc4ccccc4CN3C2=S)cc1C(F)(F)F (centres undefined) = 89%
N#Cc1ccc(N2C(=O)C3Cc4ccc(N)cc4CN3C2=S)cc1C(F)(F)F (centres undefined) = 37.8%
N#Cc1ccc(N2C(=O)C3Cc4cc(Cl)c(O)c(Cl)c4CN3C2=S)cc1C(F)(F)F (centres undefined) = 36%
CCCC(=O)Nc1ccc2c(c1)CN1C(=S)N(c3ccc(C#N)c(C(F)(F)F)c3)C(=O)C1C2 (centres undefined) = 45.5%

[ask] Quick one: inhibition for CNC(=O)c1cc2c(cc1F)CC1C(=O)N(c3ccc(C#N)c(C(F)(F)F)c3)C(=S)N1C2 (centres undefined) ?
[reply] 47.1%

[ask] Quick one: inhibition for N#Cc1ccc(N2C(=O)C3Cc4ccc(OC5CCCCC5)cc4CN3C2=S)cc1C(F)(F)F (centres undefined) ?
[reply] 61.6%

[ask] Quick one: inhibition for N#Cc1ccc(N2C(=O)C3Cc4cc([N+](=O)[O-])ccc4CN3C2=S)cc1C(F)(F)F (centres undefined) ?
[reply] inactive
